This listing pairs molecules with measured pIC50.
- target or system: EGFR exon 20 FQEA Ins A763_V764 (Ba/F3 cells) (Homo sapiens, UniProt P00533, INS763FQEA)
- Sequence (P00533 with tags, fused parts or gaps INS763FQEA): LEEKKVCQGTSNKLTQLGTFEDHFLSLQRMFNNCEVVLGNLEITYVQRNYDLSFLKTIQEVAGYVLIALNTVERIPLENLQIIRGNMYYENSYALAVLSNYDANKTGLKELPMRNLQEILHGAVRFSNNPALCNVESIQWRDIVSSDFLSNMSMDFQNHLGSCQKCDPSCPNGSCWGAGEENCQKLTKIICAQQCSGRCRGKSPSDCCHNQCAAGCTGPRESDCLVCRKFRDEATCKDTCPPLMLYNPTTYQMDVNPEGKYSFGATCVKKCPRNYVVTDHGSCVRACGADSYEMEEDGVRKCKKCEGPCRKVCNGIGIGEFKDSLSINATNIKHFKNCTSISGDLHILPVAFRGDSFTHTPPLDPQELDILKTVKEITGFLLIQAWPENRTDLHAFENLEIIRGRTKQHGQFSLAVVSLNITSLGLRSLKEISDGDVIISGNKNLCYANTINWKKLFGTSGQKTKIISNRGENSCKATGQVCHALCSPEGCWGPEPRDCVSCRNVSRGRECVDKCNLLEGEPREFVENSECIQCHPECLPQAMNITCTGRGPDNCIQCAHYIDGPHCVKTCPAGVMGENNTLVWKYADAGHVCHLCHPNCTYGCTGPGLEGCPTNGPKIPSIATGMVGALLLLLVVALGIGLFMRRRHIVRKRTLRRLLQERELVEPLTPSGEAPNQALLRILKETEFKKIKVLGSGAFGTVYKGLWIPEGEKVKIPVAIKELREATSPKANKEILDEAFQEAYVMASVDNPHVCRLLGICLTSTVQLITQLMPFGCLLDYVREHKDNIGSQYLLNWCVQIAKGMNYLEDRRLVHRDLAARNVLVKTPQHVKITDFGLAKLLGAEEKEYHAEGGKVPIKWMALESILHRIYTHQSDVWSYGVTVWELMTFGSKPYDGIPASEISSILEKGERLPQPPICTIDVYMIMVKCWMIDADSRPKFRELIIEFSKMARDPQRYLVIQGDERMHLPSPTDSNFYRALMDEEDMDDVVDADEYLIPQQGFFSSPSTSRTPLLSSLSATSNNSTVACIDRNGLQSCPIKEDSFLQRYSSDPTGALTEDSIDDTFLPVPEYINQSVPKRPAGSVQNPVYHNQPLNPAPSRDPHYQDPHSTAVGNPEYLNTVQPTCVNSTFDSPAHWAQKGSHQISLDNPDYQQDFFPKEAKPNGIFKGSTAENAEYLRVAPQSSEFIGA
- measurement description: Inhibitor activity on EGFR-dependent cell growth (CellTiter-Glo, 72 h), Ba/F3 EGFR exon 20 FQEA Ins
- measurement parameters: read-out: BaF3 FQEA IC50
pIC50: −log10 of the molar value.

# count of solved cases: 3
CC[C@@H]1CNC(=O)c2c1[nH]c(-c1ccnc(N)n1)c2Nc1cccc(Cl)c1OC [189a]: > 7.00
COc1c(Cl)cccc1Nc1c(-c2ccncc2F)[nH]c2c1C(=O)NC[C@@]21CCN(CC(F)F)C1: 6.00 to 7.00
COc1c(Cl)cccc1Nc1c(-c2ccnc3ccoc23)[nH]c2c1C(=O)NCC2: > 7.00

Input `COc1c(Cl)cccc1Nc1c(-c2ccnc(NC3CCOCC3)n2)[nH]c2c1C(=O)NCC2` . Output pIC50: < 6.00

Input `CCc1c(F)cccc1Nc1c(-c2ccnc(N)n2)[nH]c2c1C(=O)NCC2` . Output pIC50: 6.00 to 7.00

Input COCC[C@H]1CNC(=O)c2c1[nH]c(-c1ccnc(C)n1)c2Nc1cccc(Cl)c1OC [463b] . Output pIC50: > 7.00

Input `COc1c(Cl)cccc1Nc1c(-c2ccnc3ccc(OCCN(C)C)nc23)[nH]c2c1C(=O)NCC2` . Output pIC50: 6.00 to 7.00

Input `COc1c(Cl)cccc1Nc1c(-c2ccnc(Nc3cnn(C(C)C)c3)n2)[nH]c2c1C(=O)NCC2` . Output pIC50: > 7.00

Input `COc1c(Cl)cccc1Nc1c(-c2ncnc3[nH]ccc23)[nH]c2c1C(=O)NCC2` . Output pIC50: < 6.00

Input `COc1c(F)cccc1Nc1c(-c2ccnc3ccoc23)[nH]c2c1C(=O)NCC2` . Output pIC50: > 7.00

Input `COc1c(Cl)cccc1Nc1c(-c2ccnc3ccc(OCC4COC4)nc23)[nH]c2c1C(=O)NCC2` . Output pIC50: > 7.00

Values compiled from patent US20240101576A1.
